# TARGET SYSTEM: UniProt:Q9Y6L6
# Sequence (Q9Y6L6 whole entry): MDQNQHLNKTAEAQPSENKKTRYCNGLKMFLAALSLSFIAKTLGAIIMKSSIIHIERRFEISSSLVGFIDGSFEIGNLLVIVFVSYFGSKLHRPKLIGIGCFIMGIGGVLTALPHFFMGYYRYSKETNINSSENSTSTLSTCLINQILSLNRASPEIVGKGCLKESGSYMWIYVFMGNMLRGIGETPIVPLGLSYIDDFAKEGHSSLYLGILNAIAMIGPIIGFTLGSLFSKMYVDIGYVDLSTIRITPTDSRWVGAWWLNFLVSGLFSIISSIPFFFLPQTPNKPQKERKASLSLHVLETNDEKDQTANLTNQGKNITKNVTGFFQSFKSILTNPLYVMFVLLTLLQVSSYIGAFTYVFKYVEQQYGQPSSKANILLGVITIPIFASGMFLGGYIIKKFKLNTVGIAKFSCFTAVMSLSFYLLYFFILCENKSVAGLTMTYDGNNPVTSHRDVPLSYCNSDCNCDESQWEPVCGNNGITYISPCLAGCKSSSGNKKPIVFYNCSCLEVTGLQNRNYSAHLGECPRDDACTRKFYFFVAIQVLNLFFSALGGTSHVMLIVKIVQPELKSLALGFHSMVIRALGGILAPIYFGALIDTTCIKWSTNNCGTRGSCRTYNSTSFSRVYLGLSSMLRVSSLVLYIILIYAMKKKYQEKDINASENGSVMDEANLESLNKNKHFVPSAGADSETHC
# PROCEDURE TEXT: In vitro inhibition of human OATP1B1

{"COMPOUND": "C/C(O)=C(\\C#N)C(=O)Nc1ccc(C(F)(F)F)cc1 [Teriflunomide]", "IC50 / µM": 7.1}

###

# PROCEDURE TEXT: Crossover interaction study: effect of repeated doses of teriflunomide on the pharmacokinetics of a single dose of rosuvastatin in healthy male subjects
# Format: in vivo, human
# ASSAY CONTEXT: male, human, plasma; rosuvastatin 10 mg alone; mean ± SD; N=15; read-out: Rosuvastatin AUClast

{"LINE NOTATION": "CC(C)c1nc(N(C)S(C)(=O)=O)nc(-c2ccc(F)cc2)c1/C=C/[C@@H](O)C[C@@H](O)CC(=O)O", "AUC(0-t), ng·h/mL": 31.5}

###

# PROCEDURE TEXT: Crossover interaction study: effect of repeated doses of teriflunomide on the pharmacokinetics of a single dose of rosuvastatin in healthy male subjects
# Assay type: in vivo, human
# ASSAY CONTEXT: male, human, plasma; rosuvastatin 10 mg alone; median (min-max); N=15
PROPERTY: Tmax (h)

{"LINE NOTATION": "CC(C)c1nc(N(C)S(C)(=O)=O)nc(-c2ccc(F)cc2)c1/C=C/[C@@H](O)C[C@@H](O)CC(=O)O", "PROPERTY": "Tmax", "ASSAY RESULT": 3}

###

Target protein (sequence): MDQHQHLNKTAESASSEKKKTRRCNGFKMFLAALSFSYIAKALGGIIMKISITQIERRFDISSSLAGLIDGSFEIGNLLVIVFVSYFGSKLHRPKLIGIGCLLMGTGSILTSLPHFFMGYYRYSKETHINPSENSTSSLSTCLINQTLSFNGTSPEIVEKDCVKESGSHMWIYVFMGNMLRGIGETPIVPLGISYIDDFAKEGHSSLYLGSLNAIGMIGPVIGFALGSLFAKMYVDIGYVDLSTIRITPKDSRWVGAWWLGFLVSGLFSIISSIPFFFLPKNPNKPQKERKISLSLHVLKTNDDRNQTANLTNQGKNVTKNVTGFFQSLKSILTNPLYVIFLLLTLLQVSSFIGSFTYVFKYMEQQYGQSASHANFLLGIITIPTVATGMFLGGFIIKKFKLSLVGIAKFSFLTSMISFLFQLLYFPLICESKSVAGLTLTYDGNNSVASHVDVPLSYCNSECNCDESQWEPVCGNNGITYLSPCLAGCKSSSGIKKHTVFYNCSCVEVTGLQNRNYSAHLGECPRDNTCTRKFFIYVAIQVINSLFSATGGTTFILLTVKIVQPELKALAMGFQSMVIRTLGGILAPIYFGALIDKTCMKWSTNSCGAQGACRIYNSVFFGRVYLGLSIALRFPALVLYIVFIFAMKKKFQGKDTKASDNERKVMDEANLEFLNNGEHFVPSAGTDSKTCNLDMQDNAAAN
pIC50: −log10 of the molar value.

{"MOLECULE": "C/C(O)=C(\\C#N)C(=O)Nc1ccc(C(F)(F)F)cc1 [Teriflunomide]", "pIC50": 5.15}
